- Target of assay: TTC7B-FAM126A (1–308) heterodimer (UniProt Q86TV6;Q9BYI3)
- Method notes: BLI
Measurement kind: pKd
Just so you know, pKd here is -log10 of the concentration in molar units; reply with that number alone.

Record His-tagged MBP-EFR3A (721–791) (domain or fragment) SNTEEITFEALKKAIDTSGMEEQEKEKRRLVIEKFQKAPFEEIAAQCESKANLLHDRLAQILELTIRPPPS . Reported pKd: 10.39
